# Method Summary: gradient 5% acetonitrile 3 min, to 50% in 2 min, to 85% in 15 min, held 3 min, 100 µL/min
# Applied Conditions: column: Zorbax Extend-C18 2.1 x 50 mm; eluents: water / acetonitrile, 0.1% formic acid
RP-LC retention time for assorted compounds
Number in s, nothing else.

Consider the worked cases shown below.
O=C(Cn1cnc2ccccc2c1=O)NC1CCCC1 : 672
COc1ccc(-c2cc3c(=O)n(CC(=O)N4CCCC4)ncn3n2)cc1 : 746
CCCCC(=O)Nc1ccc(OCc2cc(C(=O)NC3CC3)no2)cc1 : 798
CCOc1ccc2nc(C(=O)Nc3ccc(N4CCOCC4)cc3)cn2n1 : 767
CCn1nc(-c2nc(C(C)(C)C)no2)ccc1=O : 883

(Q) Sample COc1ccc(Cl)cc1NC(=O)C(=O)NCC1(O)CCOCC1 — what was its RP-LC retention time?
(A) 706

###

# Method Summary: gradient 5% acetonitrile 3 min, to 50% in 2 min, to 85% in 15 min, held 3 min, 100 µL/min
# Applied Conditions: column: Zorbax Extend-C18 2.1 x 50 mm; eluents: water / acetonitrile, 0.1% formic acid
Dear colleague, classification is by RP-LC retention time, with ranges listed here: lower level: < 600 s; middle level: ≥ 600 s and < 700 s; upper level: ≥ 700 s

Here's what some known entries look like.
Cc1noc(C)c1Cc1c(C(=O)NCC23CCC=C2N(C)C(=O)CC3)noc1C (stereo not given) : upper level
Cn1nc2n(c1=O)CCN(C(=O)c1ccn[nH]1)CC2 : lower level
Cc1ccc(CNC(=O)C2(CCO)CCN(Cc3ccccc3)C2)o1 (stereo not given) : middle level
Cc1nn(C)c(=O)c2cc(S(=O)(=O)NCc3ccccc3)cn12 : upper level
CC(C)NC(=O)c1ccc(OCC2CCN(C(=O)c3ccc(C(F)(F)F)cc3)CC2)cc1 : upper level

Query compound follows.
(Q) Sort O=C(Cn1nc2n(c1=O)CCCC2)Nc1ccc2c(c1)OCCO2 into one of the categories.
(A) middle level

###

# Method Summary: gradient 5% acetonitrile 3 min, to 50% in 2 min, to 85% in 15 min, held 3 min, 100 µL/min
# Applied Conditions: column: Zorbax Extend-C18 2.1 x 50 mm; eluents: water / acetonitrile, 0.1% formic acid
Assign class by RP-LC retention time: not lower than 900 s means 1; lower than 900 s means -1.

Cc1ccc(-c2nc3ccc(C)cn3c2Nc2ccccc2C)cc1 : -1
CC(C)CN1CCn2cc(C(=O)N3CCN(c4ccccn4)CC3)nc2C1 : -1

(Q) Is RP-LC retention time for CCc1noc(-c2ccnc(-n3ncc(C(=O)NCC(C)C)c3C)c2)n1 at or above 900 s?
(A) 1

(Q) Is RP-LC retention time for Cc1ccc(S(=O)(=O)N2c3ccccc3NC3=C(C(=O)CCC3)C2c2ccco2)cc1C (centres undefined) at or above 900 s?
(A) -1

(Q) Is RP-LC retention time for CCCCn1cc(S(=O)(=O)N2CCN(c3cccc(C)c3)CC2)c2cccnc21 at or above 900 s?
(A) 1

(Q) Is RP-LC retention time for O=C(Nc1cnc(N2CCCC2)nc1)c1ccccc1 at or above 900 s?
(A) -1

###

RP-LC retention time for assorted compounds
# Method Summary: gradient 5% acetonitrile 3 min, to 50% in 2 min, to 85% in 15 min, held 3 min, 100 µL/min
# Applied Conditions: column: Zorbax Extend-C18 2.1 x 50 mm; eluents: water / acetonitrile, 0.1% formic acid
Number in s, nothing else.

CCN(CC)C(=O)c1cc2c(s1)CCC(C(=O)Nc1ccc(N3CCOCC3)cc1)C2 (stereo not drawn) : 767
Cc1ccc(NC(=O)C2CCN(S(=O)(=O)c3cn(C(C)C)cn3)CC2)cc1C : 819
COc1ccc(CCNC(=O)Cn2nc3n(c2=O)CCCC3)cc1OC : 613

(Q) Sample CCOC(=O)c1noc2nc(C)nc(N3CCN(c4cccc(Cl)c4)CC3)c12 — what was its RP-LC retention time?
(A) 1220

(Q) Sample Cc1ccccc1CNC(=O)C1(C)CCCN(C(=O)Nc2ccc3c(c2)OCCO3)C1 (stereo not drawn) — what was its RP-LC retention time?
(A) 846

(Q) Sample COCCC1CCN(C(=O)COc2ccc(OC)cc2)CC1 — what was its RP-LC retention time?
(A) 768

(Q) Sample Cc1cccc(N2C(=O)CN(S(=O)(=O)c3ccccc3)CC2(C)C(=O)NC2CCCC2)c1C (stereo not drawn) — what was its RP-LC retention time?
(A) 968

(Q) Sample COc1ccc(-c2nnc(-c3ccc(OC)c(S(=O)(=O)N4CCCCCC4)c3)o2)cc1OC — what was its RP-LC retention time?
(A) 979

(Q) Sample COc1cc(OC)cc(-c2noc(-c3nn(-c4ccc(Cl)cc4)ccc3=O)n2)c1 — what was its RP-LC retention time?
(A) 973

(Q) Sample Cc1ccccc1-c1nnc(COc2ccc(NC(=O)Cc3cccs3)cc2)o1 — what was its RP-LC retention time?
(A) 976

(Q) Sample O=C(Nc1ccc(Cl)cc1)c1cn(CC(O)c2ccc3c(c2)OCO3)nn1 (stereo not drawn) — what was its RP-LC retention time?
(A) 841

(Q) Sample O=C(NCCN1CCCC1)c1cccc(N2CCNC(c3ccccc3)C2)n1 (stereo not drawn) — what was its RP-LC retention time?
(A) 553

(Q) Sample CC(C)n1c(-c2cccc(C(=O)NC3CCCC3)c2)nc2cccnc21 — what was its RP-LC retention time?
(A) 796

(Q) Sample CC(C)N1CCN(C(=O)CN2CCN(Cc3ccccc3)C2=O)CC1 — what was its RP-LC retention time?
(A) 565

(Q) Sample CCOc1ccc(CN2C[C@@H]3C(=O)N(CCCN4CCCC4=O)C(=O)[C@@H]3C2)cc1 — what was its RP-LC retention time?
(A) 610

(Q) Sample CCN1C(=O)c2cccnc2Sc2cc(NC(=O)CCc3cccc(OC)c3)ccc21 — what was its RP-LC retention time?
(A) 855

(Q) Sample CC1CCN(C(=O)C2CCN(S(=O)(=O)c3cc(C(=O)N4CCCC4)n(C)c3)CC2)CC1 — what was its RP-LC retention time?
(A) 750

(Q) Sample CC(C(=O)N1Cc2c(C(=O)NC3CC3)nn(C)c2C1)c1ccccc1 (stereo not drawn) — what was its RP-LC retention time?
(A) 708

(Q) Sample Cc1ccccc1-n1c(Cn2ncc3c(N)ncnc32)nc2cccc(C)c2c1=O — what was its RP-LC retention time?
(A) 719

(Q) Sample CC(C)c1nc2cccnc2n1CCN1CCN(C(=O)Nc2ccc(F)cc2F)CC1 — what was its RP-LC retention time?
(A) 589

###

RP-LC retention time for assorted compounds
# Method Summary: gradient 5% acetonitrile 3 min, to 50% in 2 min, to 85% in 15 min, held 3 min, 100 µL/min
# Applied Conditions: column: Zorbax Extend-C18 2.1 x 50 mm; eluents: water / acetonitrile, 0.1% formic acid
Number in s, nothing else.

Consider the worked cases shown below.
O=C(NCCc1c[nH]c2ccccc12)c1cc2cccnc2n(Cc2ccccc2F)c1=O : 1080
O=C(NCc1ccccc1)c1ccc2c(c1)CCN2C(=O)C1CC1 : 794
COc1ccccc1NC(=O)c1cn(CC2CCCO2)cc2c(=O)n(-c3ccccc3)nc1-2 (centres undefined) : 983
O=C(NC1CC1)c1nnn2c1COC(c1ccc(Cl)cc1)C2 (centres undefined) : 859
O=C(NC1CCN(Cc2ccccc2)CC1)c1csc(-c2ccc(N3CCCC3)nc2)n1 : 565

(Q) Sample COc1ccc2c(c1)-c1nc(NC(=O)c3ccc(OC)c(Br)c3)sc1CC2 — what was its RP-LC retention time?
(A) 1220

(Q) Sample O=C(Nc1ccc(N2CCOCC2)cc1)C1CCCN(c2nccnc2Sc2ccccc2)C1 (centres undefined) — what was its RP-LC retention time?
(A) 945

(Q) Sample Cc1nnc(C2CCCCCN2C(=O)CCc2c(C)noc2C)o1 (centres undefined) — what was its RP-LC retention time?
(A) 674

(Q) Sample CCOc1ccc(C2C(C(=O)OCCOC)=C(C)NC3=C2C(=O)CCC3)cc1OC (centres undefined) — what was its RP-LC retention time?
(A) 700

###

# Method Summary: gradient 5% acetonitrile 3 min, to 50% in 2 min, to 85% in 15 min, held 3 min, 100 µL/min
# Applied Conditions: column: Zorbax Extend-C18 2.1 x 50 mm; eluents: water / acetonitrile, 0.1% formic acid
Measured Property: RP-LC retention time (s)
Number in s, nothing else.

(Q) Sample COc1cccc(-c2nc(Cc3nc(-c4ccccc4OC)oc3C)no2)c1 — what was its RP-LC retention time?
(A) 1030

(Q) Sample Fc1ccc(OCc2nnc3sc(Cc4ccc5c(c4)OCCO5)nn23)cc1 — what was its RP-LC retention time?
(A) 913

(Q) Sample CCOCCCNC(=O)C(C)n1c(=O)c(C(F)(F)F)nc2ccccc21 (centres undefined) — what was its RP-LC retention time?
(A) 929

(Q) Sample COc1ccc2nc3cc(Cl)ccc3c(C#N)c2c1 — what was its RP-LC retention time?
(A) 1260

(Q) Sample CCN1C(=O)C2(CCN(S(=O)(=O)c3cccc(C(F)(F)F)c3)CC2)c2ccccc21 — what was its RP-LC retention time?
(A) 1120

(Q) Sample O=C(NCCC1CCN(C(=O)Nc2cc(F)cc(F)c2)CC1)C1CCCC1 — what was its RP-LC retention time?
(A) 860
